meta.source: ChEMBL document CHEMBL1201862

# Test system: OVCAR-5
# Test name: NCI tumour cell line growth inhibition, 48 h
Activity calls are given as the source filed them. Cut-off read from the data, not from the text of the source: active = GI50 up to about 1.1 µM and inactive = higher.
Readout kind: GI50

{"columns": ["Compound", "Readout kind", "Measured result"],
 "data": [
  ["C=CC1ON(C)CCc2cc(OC)c(OC)cc21 (stereo not drawn)", "GI50", "> 100 µM (inactive)"],
  ["CC(=O)Oc1cc(S(=O)(=O)Nc2nc(N)n[nH]2)c(S)cc1Cl", "GI50", "> 100 µM (inactive)"],
  ["Cc1cc(NCCCCCCNc2cc(C)nc3cc(N(C)C)ccc23)c2ccc(N(C)C)cc2n1", "GI50", "22.4 µM (inactive)"],
  ["C[C@@]12[Se]c3ccccc3[C@]1(C)[Se]c1ccccc12", "GI50", "> 100 µM (inactive)"],
  ["CCCCCCCCCCCC(=O)CC(=O)c1c(O)cccc1O", "GI50", "15.5 µM (inactive)"],
  ["C=CCCC1(CC(Sc2ccccc2)P(=O)(c2ccccc2)c2ccccc2)OCCO1 (stereo not drawn)", "GI50", "> 10 µM (inactive)"],
  ["Nc1ccc2n[se]nc2c1", "GI50", "> 100 µM (inactive)"],
  ["CCNC(=O)/C(=C/c1ccc(OC)cc1)c1cc(OC)c(OC)c(OC)c1", "GI50", "63.8 µM (inactive)"],
  ["CC(=O)C1=C(N=[N+]=[N-])c2cccc3cccc(c23)C1=O", "GI50", "16.5 µM (inactive)"],
  ["CN(C)CCC[N+]1=Nc2cccc3cccc(c23)N1", "GI50", "> 100 µM (inactive)"],
  ["Cc1cc(OCC(=O)N/N=C/C(Br)=C/c2ccccc2)nc(SCC(=O)N/N=C/C(Br)=C/c2ccccc2)n1", "GI50", "> 100 µM (inactive)"],
  ["O=C1Nc2ccccc2[C@]12C[C@H]2c1ccccn1", "GI50", "> 100 µM (inactive)"],
  ["CCOC(=O)N1c2ccccc2C(C)=CC(C)C1C (stereo not drawn)", "GI50", "40.1 µM (inactive)"],
  ["CC(=O)/C(=C\\Nc1c(C)n(C)n(C)c1=O)C(=O)c1ccccc1", "GI50", "> 50 µM (inactive)"],
  ["CCOC(=O)C(OCC1CC=CCC1)Sc1ccccc1 (stereo not drawn)", "GI50", "> 100 µM (inactive)"],
  ["COc1cc(NC(C)CCCN)c2nccc(C)c2c1 (stereo not drawn)", "GI50", "96.4 µM (inactive)"],
  ["Cc1cc2c(O)nc(N)nc2nc1C", "GI50", "> 100 µM (inactive)"],
  ["CCOC(=O)CCC(NC(=O)OCc1ccccc1)C(=O)NC(CCC(=O)OCC)C(=O)NC(CCC(=O)OCC)C(=O)NNC(=O)OC(C)(C)C (stereo not drawn)", "GI50", "> 100 µM (inactive)"],
  ["CC(=O)OC(Cc1cc(C=C(C(F)(F)F)C(F)(F)F)cc(C)n1)(C(F)(F)F)C(F)(F)F", "GI50", "2.18 µM (inactive)"],
  ["Nc1nc(=S)n(-c2ccc(Cl)cc2)c2nc3ccccc3cc12", "GI50", "83.2 µM (inactive)"],
  ["O=C1CC2CC(CC3(CO3)C2)C1F (stereo not drawn)", "GI50", "> 100 µM (inactive)"],
  ["CCCCCCCCCCCCCCCCCC(CCCCCCCCCCCCCCCCC)OP(=O)(O)O", "GI50", "> 100 µM (inactive)"],
  ["OC(CCN1CCN(CCOC(c2ccccc2)c2ccccc2)CC1)c1ccc(Br)cc1 (stereo not drawn)", "GI50", "14.9 µM (inactive)"]
]}

----------
# Test system: NCI-H522
# Test name: NCI tumour cell line growth inhibition, 48 h
The source made the active and inactive calls. Rule as the data show it: active = GI50 up to about 1.1 µM and inactive = higher.
Outcomes: active, inactive

{"columns": ["Compound", "Discrete label"],
 "data": [
  ["C/C=C(/C)C(=O)O[C@H]1[C@H](O)CC(c2ccc3c(c2O)C(=O)C2=C(O)C4(OC)C(=O)C(C(N)=O)=C(O)[C@H](CC(=O)c5ccccc5O)C4CC2[C@@]3(C)OC)O[C@@H]1C (some centres undefined)", "active"],
  ["O=c1cc(N2CCNCC2)nc2ccccn12", "inactive"],
  ["C=CC1ON(C)CCc2cc(OC)c(OC)cc21 (centres undefined)", "inactive"],
  ["O=C1c2ccccc2C(=O)c2c(NC(=O)c3ccc4c5c(ncnc35)-c3ccccc3C4=O)cccc21", "inactive"],
  ["O=C(O)c1c(-c2ccccc2)c(=O)[nH]c2ccccc12", "inactive"],
  ["CC(NC(=O)/C(=C/c1ccccc1)NC(=O)c1ccccc1)C(=O)O (centres undefined)", "inactive"],
  ["C[N+]1(CCNP(=S)(NCC[N+]2(C)Cc3c(ccc4c3OCO4)C3C2c2cc4c(cc2C[C@@H]3O)OCO4)NCC[N+]2(C)Cc3c(ccc4c3OCO4)C3C2c2cc4c(cc2C[C@@H]3O)OCO4)Cc2c(ccc3c2OCO3)C2C1c1cc3c(cc1C[C@H]2O)OCO3 (some centres undefined)", "active"],
  ["CC[C@@]1(O)C(=O)OCc2c1cc1n(c2=O)Cc2c-1nc1ccccc1c2/C=N\\NC(=O)C1CCCN1 (some centres undefined)", "active"],
  ["O=C(O)c1ccccc1C1CCCc2c1[nH]c1ccccc21 (centres undefined)", "inactive"],
  ["OC(CCN1CCN(CCOC(c2ccccc2)c2ccccc2)CC1)c1ccc(Br)cc1 (centres undefined)", "inactive"],
  ["COc1cc2ncnc(Nc3cccc(Cl)c3)c2cc1OC", "active"],
  ["COc1ccc(/C=C2\\CN(C)C/C(=C\\c3ccc(OC)cc3)C2=O)cc1", "inactive"],
  ["CCCC[S+]([O-])CCC(N)P(=O)(O)O (centres undefined)", "inactive"],
  ["CCOC(=O)c1nc2cc(F)c(F)cc2nc1NCc1cc(OC)c(OC)c(OC)c1", "inactive"],
  ["Nc1ncnc2c1cnn2Cc1ccc(Cl)cc1", "inactive"],
  ["CCCCCCCCCCCC(=O)CC(=O)c1c(O)cccc1O", "inactive"],
  ["O=C(C#Cc1ccccc1)C1=Cc2ccccc2OC1", "inactive"],
  ["O=C1C=C(N2CCN(CCOCCO)CC2)C(=O)c2c(O)ccc(O)c21", "inactive"],
  ["CC(C)Oc1ccc2c(c1)OCC1Cc3ccccc3OC21 (centres undefined)", "inactive"]
]}

----------
# Tested on: ACHN
# Test name: NCI tumour cell line growth inhibition, 48 h
Activity calls are given as the source filed them. Cut-off read from the data, not from the text of the source: active = GI50 up to about 1.1 µM and inactive = higher.
Reported GI50 is given for each of the following compounds.
Readout kind: GI50

{"columns": ["Compound", "Measured result"],
 "data": [
  ["O=C1C(N2CCN(CCOCCO)CC2)=C(Cl)C(=O)c2ncccc21", "19.1 µM (inactive)"],
  ["Cc1ccc2c(=O)c(-c3n[nH]c(=S)s3)c[nH]c2n1", "> 100 µM (inactive)"],
  ["CC(C)OP(=O)(OC(C)C)/C(=N/Nc1ccc([N+](=O)[O-])cc1)Nc1ccc(N/C(=N\\Nc2ccc([N+](=O)[O-])cc2)P(=O)(OC(C)C)OC(C)C)cc1", "23.4 µM (inactive)"],
  ["COC(=O)/C(C#N)=C1\\CCC(O)N1 (stereo not given)", "> 100 µM (inactive)"],
  ["CCCCCCCCCc1cc(=O)c2c(O)cc(O)cc2o1", "19 µM (inactive)"],
  ["O=C1C/C(Br)=C\\c2ccccc2-c2ccccc21", "1.91 µM (inactive)"],
  ["Cc1nnc2sc(-c3ccc(-c4ccccc4Cl)o3)nn12", "48.4 µM (inactive)"],
  ["COC(=O)C(=O)c1c2ccccc2n2ccc3c4ccccc4[nH]c3c12", "> 10 µM (inactive)"],
  ["CSC1=C(C#N)C(=O)N(c2ccc(Cl)cc2)C(=O)C1C#N (stereo not given)", "> 100 µM (inactive)"],
  ["COc1cc2ccnc([C@@H](OC(=O)c3ccccc3)c3ccc(OC)c(OC)c3OC)c2cc1OC", "32.7 µM (inactive)"]
]}

----------
Parameter GI50: see the listing below.
# Test system: SN12C
# Test name: NCI tumour cell line growth inhibition, 48 h
The source made the active and inactive calls. No stated cut-off is given here; in the data, active = GI50 up to about 1.1 µM and inactive = higher.

{"columns": ["Compound", "Measured target", "GI50"],
 "data": [
  ["CC1=C[C@@H]2[C@@H](CC(CO)=C[C@H]3[C@@H]4C(C)(C)[C@]4(OCC(C)C)[C@H](OCC(C)C)[C@@H](C)[C@]23O)C1=O", "SN12C", "1.73 µM (inactive)"],
  ["Nc1nc(=O)c2c([nH]1)NCC(CNc1ccc(C(=O)N[C@@H](CCC(=O)O)C(=O)O)cc1)N2C=O (stereo partly drawn)", "SN12C", "14.8 µM (inactive)"],
  ["Oc1ccc(Oc2cc3c(cc2Oc2ccc(O)cc2)-c2nc-3nc3[nH]c(nc4nc(nc5[nH]c(n2)c2cc(Oc6ccc(O)cc6)c(Oc6ccc(O)cc6)cc52)-c2cc(Oc5ccc(O)cc5)c(Oc5ccc(O)cc5)cc2-4)c2cc(Oc4ccc(O)cc4)c(Oc4ccc(O)cc4)cc32)cc1", "SN12C", "> 100 µM (inactive)"]
]}
